All figures here come from patent US20180186815A1.

This section presents molecules with their documented viability at 5 µM values.
# Test system: colon cancer cell line HCT 116
# run-description: Growth profile / viability of HCT116 colon cancer cells, XTT test
# Assay type: cell-based
# study-conditions: Homo sapiens, HCT-116, 96 h, Control DMSO = 100%, first HCT116 column, read-out: percentage of viable cells, HCT116

- molecule: "Cc1c(-c2ccc(N3CCCC3)cc2)nc2sc(N3CCC(C(=O)N4CCN(C)CC4)CC3)nn12 [Compound Z522-0195]"
  test-system: "colon cancer cell line HCT 116"
  viability at 5 µM (%): 111
- molecule: "CC(C)c1ccc(-c2cn3nc(N4CCC(C(=O)N5CCN(CC(=O)N6CCN(C)CC6)CC5)CC4)sc3n2)cc1 [Compound Z522-0238]"
  test-system: "colon cancer cell line HCT 116"
  viability at 5 µM (%): 54
- molecule: "Cc1c(-c2ccc(N3CCOCC3)cc2)nc2sc(N3CCC(C(=O)N4CCN(C)CC4)CC3)nn12 [Compound Z522-0196]"
  test-system: "colon cancer cell line HCT 116"
  viability at 5 µM (%): 105
- molecule: "CC(C)c1ccc(-c2cn3nc(N4CCC(C(=O)N(C)CC(=O)NCCN(C)C)CC4)sc3n2)cc1 [Compound Z522-0239]"
  test-system: "colon cancer cell line HCT 116"
  viability at 5 µM (%): 80
- molecule: "CC(C)c1ccc(-c2cn3nc(N4CCC(C(=O)N5CCN(CCN(C)C)CC5)CC4)sc3n2)cc1 [Compound Z522-0229]"
  test-system: "colon cancer cell line HCT 116"
  viability at 5 µM (%): 87
- molecule: "CC(C)c1ccc(-c2cn3nc(N4CCC(C(=O)N(C)C5CCN(C)CC5)CC4)sc3n2)cc1 [Compound Z522-0225]"
  test-system: "colon cancer cell line HCT 116"
  viability at 5 µM (%): 1
- molecule: "CC(C)c1ccc(-c2cn3nc(N4CCC(C(=O)N5CCCC(CN6CCOCC6)C5)CC4)sc3n2)cc1 (stereo not drawn) [Compound Z522-0237]"
  test-system: "colon cancer cell line HCT 116"
  viability at 5 µM (%): 74
- molecule: "Cc1c(-c2ccc(N(C)C)cc2)nc2sc(N3CCC(C(=O)N4CCN(C)CC4)CC3)nn12 [Compound Z522-0179]"
  test-system: "colon cancer cell line HCT 116"
  viability at 5 µM (%): 101
- molecule: "CN1CCN(C(=O)C2CCN(c3nn4cc(-c5ccc(-n6cccn6)cc5)nc4s3)CC2)CC1 [Compound Z522-0167]"
  test-system: "colon cancer cell line HCT 116"
  viability at 5 µM (%): 94

----------
# Tested on: colon cancer cell line HT29
# run-description: Growth profile / viability of HT29 colon cancer cells, XTT test
# Type: cell-based
# study-conditions: Homo sapiens, HT-29, 96 h, Control DMSO = 100%, second HT29 column, read-out: percentage of viable cells, HT29
Note to self: use yes only for viability at 5 µM readings below 40%; a reading exactly at 40% still gets no.

- molecule: "Cc1c(-c2ccc(N3CCCCCCC3)cc2)nc2sc(N3CCC(C(=O)N4CCN(C)CC4)CC3)nn12 [Compound Z522-0191]"
  class-label: "yes"
- molecule: "CN(C)CCNC(=O)CN(C)C(=O)C1CCN(c2nn3cc(-c4ccc(Cl)cc4)nc3s2)CC1 [Compound Z522-0216]"
  class-label: "yes"
- molecule: "CC(C)c1ccc(-c2cn3nc(N4CCC(C(=O)N5CCN(c6ncccn6)CC5)CC4)sc3n2)cc1 [Compound Z522-0227]"
  class-label: "no"
- molecule: "O=C(C1CCN(c2nn3cc(-c4ccc(Cl)cc4)nc3s2)CC1)N1CCCCC1CCN1CCOCC1 (centres unmarked) [Compound Z522-0211]"
  class-label: "no"
- molecule: "CC(C)N1CCN(c2ccc(-c3cn4nc(N5CCC(C(=O)N6CCN(C)CC6)CC5)sc4n3)cc2)CC1 [Compound Z522-0174]"
  class-label: "no"
- molecule: "Cc1c(-c2ccc(N3CCCC3)cc2)nc2sc(N3CCC(C(=O)N4CCN(C)CC4)CC3)nn12 [Compound Z522-0195]"
  class-label: "no"
- molecule: "CN1CCC(N2CCN(C(=O)C3CCN(c4nn5cc(-c6ccc(Cl)cc6)nc5s4)CC3)CC2)CC1 [Compound Z522-0207]"
  class-label: "yes"
- molecule: "Cc1c(-c2ccc(N3CCCC(C)C3)cc2)nc2sc(N3CCC(C(=O)N4CCN(C)CC4)CC3)nn12 (centres unmarked) [Compound Z522-0186]"
  class-label: "yes"
- molecule: "CC(C)c1ccc(-c2cn3nc(N4CCC(C(=O)N5CCCN(C)CC5)CC4)sc3n2)cc1 [Compound Z522-0224]"
  class-label: "yes"
- molecule: "CC1CCN(c2ccc(-c3cn4nc(N5CCC(C(=O)N6CCN(C)CC6)CC5)sc4n3)cc2)CC1 [Compound Z522-0170]"
  class-label: "yes"
- molecule: "CN(C)CCNC(=O)CN1CCN(C(=O)C2CCN(c3nn4cc(-c5ccc(Cl)cc5)nc4s3)CC2)CC1 [Compound Z522-0218]"
  class-label: "yes"
- molecule: "CN1CCN(C(=O)C2CCN(c3nn4cc(-c5ccc(-n6cccn6)cc5)nc4s3)CC2)CC1 [Compound Z522-0167]"
  class-label: "no"
- molecule: "O=C(C1CCN(c2nn3cc(-c4ccc(Cl)cc4)nc3s2)CC1)N1CCN(c2ccccn2)CC1 [Compound Z522-0200]"
  class-label: "no"
- molecule: "CN1CCN(C(=O)C2CCN(c3nn4cc(-c5ccc(N6CCOCC6)cc5)nc4s3)CC2)CC1 [Compound Z522-0176]"
  class-label: "no"
- molecule: "CC1CCCN(c2ccc(-c3cn4nc(N5CCC(C(=O)N6CCN(C)CC6)CC5)sc4n3)cc2)C1 (centres unmarked) [Compound Z522-0166]"
  class-label: "yes"
- molecule: "CC(C)c1ccc(-c2cn3nc(N4CCC(C(=O)N(C)CC(=O)N5CCN(C)CC5)CC4)sc3n2)cc1 [Compound Z522-0240]"
  class-label: "no"
- molecule: "O=C(C1CCN(c2nn3cc(-c4ccc(Cl)cc4)nc3s2)CC1)N1CCN(c2ncccn2)CC1 [Compound Z522-0204]"
  class-label: "no"
- molecule: "CN(CCc1ccccn1)C(=O)C1CCN(c2nn3cc(-c4ccc(Cl)cc4)nc3s2)CC1 [Compound Z522-0203]"
  class-label: "no"
- molecule: "Cc1c(-c2ccc(N3CCSCC3)cc2)nc2sc(N3CCC(C(=O)N4CCN(C)CC4)CC3)nn12 [Compound Z522-0184]"
  class-label: "no"
- molecule: "CN(CCc1ccncc1)C(=O)C1CCN(c2nn3cc(-c4ccc(Cl)cc4)nc3s2)CC1 [Compound Z522-0205]"
  class-label: "no"
